Assign RP-LC retention time to each entry below.
assay: gradient 5% acetonitrile 3 min, to 50% in 2 min, to 85% in 15 min, held 3 min, 100 µL/min; settings: column: Zorbax Extend-C18 2.1 x 50 mm; eluents: water / acetonitrile, 0.1% formic acid
Answers are plain numbers, in s.

Examples with answers:
>>> numeric_result("O=C(Cc1ccc([N+](=O)[O-])cc1)NCc1nnnn1-c1ccc(F)cc1")
701
>>> numeric_result("CCN(Cc1ccccc1)C(=O)c1ncn2c1C(=O)N(CC)C(C)(C(=O)NCc1ccc(F)cc1)C2 (centres undefined)")
762
>>> numeric_result("Cn1c(=O)c(N2CCC(NC(=O)Nc3ccccc3Cl)CC2)nc2ccccc21")
904
>>> numeric_result("COc1ccc(-c2nc(N3CCSCC3)ncc2C(=O)O)cc1")
854
>>> numeric_result("Cc1ccccc1N1CCN(C(=O)C2=CCN(Cc3cccc(F)c3)CC2)CC1")
712

Parameter requested: RP-LC retention time. Apply to each item below.
1. CCN(CC)C(=O)c1ccc(-c2nc3cc(NS(=O)(=O)c4ccc(F)c(C)c4)ccc3n2C)cc1
2. CCC(c1cccs1)N1C(=O)[C@H]2CN(S(=O)(=O)c3cc(F)ccc3F)C[C@H]2C1=O (some centres undefined)
3. O=C(Cc1nnc(-c2ccc3ncccc3c2)o1)NCCC1=CCCCC1
4. Cc1csc(-c2cc(S(=O)(=O)N3CCOCC3)c(C)n2C)n1
5. CCOC(=O)c1ccc(NS(=O)(=O)c2ccc(-c3c(C)noc3C)cc2)cc1
6. COc1cccc(N2CCN(C(=O)C3CCCN(c4cnc5nccnc5c4)C3)CC2)c1 (centres undefined)

[722, 936, 759, 824, 941, 737]

Hey, can you go through the list below and give me RP-LC retention time for every item?
1. CCN(C(=O)Cn1nc(C(=O)N2CCCCC2)c2ccccc21)c1cccc(C)c1
2. CSc1ncn(-c2nc(N(C)C)nc(N3CCCCC3)n2)n1
3. Cn1c(=O)c2cc(C(=O)Nc3ccc4c(c3)OCCO4)cnc2n(-c2ccccc2)c1=O
4. Cc1ccnc(N2CCC(C(=O)NCc3ccco3)CC2)n1
5. CN(C)c1cccc(C(=O)N2CCC3(CC2)N=C(c2ccccc2)NO3)c1
6. CC(C)n1nc(CNC(=O)c2ccc(F)c(F)c2)c2ccccc21

1. 1010
2. 1090
3. 842
4. 624
5. 717
6. 962

For every item in the list below, what is its measured RP-LC retention time?
1. CCOC(=O)c1noc2ncnc(N(C)Cc3ccccc3)c12
2. CCOc1ccc(-n2c(=O)c3sccc3n(Cc3nc(-c4ccccc4OCC)no3)c2=O)cc1

[988, 1020]

====

experiment: gradient 5% acetonitrile 3 min, to 50% in 2 min, to 85% in 15 min, held 3 min, 100 µL/min; conditions: column: Zorbax Extend-C18 2.1 x 50 mm; eluents: water / acetonitrile, 0.1% formic acid
observation type: RP-LC retention time (s)
One number for each entry, in s.

A selection of reference data follows.
>>> numeric_result("O=C1C(=O)N(Cc2ccc(C(=O)N3CCCCCC3)cc2)CCN1Cc1ccc(F)cc1")
728
>>> numeric_result("COc1ccc2[nH]c3c(c2c1)CCN1C(=O)N(c2ccc(Cl)c(Cl)c2)C(=O)C31C (stereo not given)")
1120
>>> numeric_result("Cc1cc(C)cc(NC(=O)N2CCC(CN3CCCC(C)C3)CC2)c1 (stereo not given)")
648
>>> numeric_result("CCc1noc(NC(C)=O)c1-c1ccc(C)c(S(=O)(=O)N2CCCCC2)c1")
879
>>> numeric_result("COc1cc(NC(=O)N2CCCC2c2cccc(F)c2)cc(OC)c1OC (stereo not given)")
848
>>> numeric_result("Cc1ncoc1C(=O)N1CCC(c2noc(-c3cnccn3)n2)C1 (stereo not given)")
620

Batch request: RP-LC retention time per item, same order as input.
1. COC(=O)c1ccc(-c2nc3cnccn3c2Nc2cc(OC)ccc2OC)cc1
2. CCOc1ccc(C(=O)N2CCCN(c3cc(-c4ccc(Br)cc4)[nH]n3)CC2)cc1OCC
3. CCN1C(=O)CCc2cc(NC(=O)c3cncc(Br)c3)ccc21

870
853
739
